# TARGET OR SYSTEM: T1, human RXFP1 (human, UniProt Q9HBX9 1-757)
# T1 sequence (looked up): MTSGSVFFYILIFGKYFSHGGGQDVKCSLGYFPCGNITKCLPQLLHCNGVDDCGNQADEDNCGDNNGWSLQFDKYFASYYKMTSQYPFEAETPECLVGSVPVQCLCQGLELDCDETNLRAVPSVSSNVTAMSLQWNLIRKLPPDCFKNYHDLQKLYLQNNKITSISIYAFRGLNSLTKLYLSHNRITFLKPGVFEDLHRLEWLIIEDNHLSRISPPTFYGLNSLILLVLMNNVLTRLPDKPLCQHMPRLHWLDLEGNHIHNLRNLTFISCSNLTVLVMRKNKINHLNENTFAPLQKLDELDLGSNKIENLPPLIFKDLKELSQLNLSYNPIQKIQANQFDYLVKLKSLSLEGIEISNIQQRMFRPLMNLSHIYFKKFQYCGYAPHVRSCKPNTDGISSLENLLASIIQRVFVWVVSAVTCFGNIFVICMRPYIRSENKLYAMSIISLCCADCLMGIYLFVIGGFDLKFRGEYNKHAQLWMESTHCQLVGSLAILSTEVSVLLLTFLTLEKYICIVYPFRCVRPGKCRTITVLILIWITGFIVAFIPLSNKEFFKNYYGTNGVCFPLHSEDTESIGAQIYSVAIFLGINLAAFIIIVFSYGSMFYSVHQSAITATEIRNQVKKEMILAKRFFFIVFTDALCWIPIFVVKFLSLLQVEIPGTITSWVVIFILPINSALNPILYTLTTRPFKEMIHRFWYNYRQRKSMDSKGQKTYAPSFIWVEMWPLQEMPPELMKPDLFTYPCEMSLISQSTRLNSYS
# METHOD: cell-based or functional assay
Non-standard residues stand in square brackets, D forms with d. No end group written: not given here. PEG20K = 20 kDa polyethylene glycol, linked to pAF (e.g. via oxime linkage); Phe(4-Ac) = CC(=O)c1ccc(C[C@H](N)C(=O)O)cc1
EXPERIMENTAL ENDPOINT: Functional Assay Raw EC50 Values [ng/mL]; cAMP increase in THP-1 cells, 11/5/2010
Kindly format the answer as number then unit.

INSERT INTO measurements (binder, test_value) VALUES
  ('RLX-D-BE5-20KPEG (ligand, not fully specified (bridges); ends and bridges not checked) chain 1: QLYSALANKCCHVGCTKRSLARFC chain 2: DSWM[Phe(4-Ac)](PEG20K)EVIKLCGRELVRAQIAICGMSTWS', '58 ng/mL'),
  ('RLX-A-BE5-20KPEG (ligand, not fully specified (bridges); ends and bridges not checked) chain 1: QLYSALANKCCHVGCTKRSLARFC chain 2: ASWM[Phe(4-Ac)](PEG20K)EVIKLCGRELVRAQIAICGMSTWS', '45 ng/mL'),
  ('RLX-A-AA5-20KPEG (ligand, not fully specified; para-acetylphenylalanine (pAF) at position 5 of the A chain, 20K PEGylated) chain 1: QLYSXLANKCCHVGCTKRSLARFC chain 2: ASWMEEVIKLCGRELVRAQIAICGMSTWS', '41 ng/mL');

Note: attention shifts to another entry.
Value of measured Functional Assay Raw EC50 Values [ng/mL]; cAMP increase in THP-1 cells, 11/5/2010 for the entry RLX-D-AL2-20KPEG (ligand, not fully specified; para-acetylphenylalanine (pAF) at position 2 of the A chain, 20K PEGylated) chain 1: QXYSALANKCCHVGCTKRSLARFC chain 2: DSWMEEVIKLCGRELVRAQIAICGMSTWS : 43 ng/mL
